Biological target: KRAS G12C (Homo sapiens, UniProt P01116+P62937, G12C)
Sequence (P01116 1-169 isoform P01116-2 G12C limits assumed, one chain of several): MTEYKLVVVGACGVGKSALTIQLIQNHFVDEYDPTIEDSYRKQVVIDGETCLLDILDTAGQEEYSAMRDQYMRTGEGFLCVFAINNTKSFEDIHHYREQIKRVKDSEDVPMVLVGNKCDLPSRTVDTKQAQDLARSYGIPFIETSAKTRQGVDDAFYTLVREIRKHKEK
Assay: Ras-Raf disruption / FRET / MOA assay (BRAF RBD)
Format: biochemical
Details: KRAS G12C FRET data IC50, Ras-Raf disruption, with Cyclophilin A
Text: Disruption of […] Ras-binding Domain (BRAF^RBD) Interaction with K-Ras by Compounds of the Invention (also Called a FRET Assay or an MOA Assay) Note—The following protocol describes a procedure for monitoring disruption of K-Ras G12C (GMP-PNP) binding to BRAF^RBD by a compound of the invention. This protocol may also be executed substituting other Ras proteins or nucleotides, such as K-Ras G12D and K-Ras G13D. […]
property label: IC50

CCn1c(-c2cccnc2[C@H](C)OC)c2c3cc(ccc31)-c1cc(O)cc(c1)C[C@H](NC(=O)[C@H](C(C)C)N(C)C(=O)CN(C)C(=O)[C@H]1CN1CCCOC(C)=O)C(=O)N1CCC[C@H](N1)C(=O)OCC(C)(C)C2 (some centres unmarked) [Example 266]: < 10 nM

Kindly consider the entry below.
IC50 recorded for this molecule, CC[C@@H]1N[C@@H]1C(=O)N(C)CC(=O)N(C)[C@H](C(=O)N[C@H]1Cc2cc(O)cc(c2)-c2ccc3c(c2)c(c(-c2cccnc2[C@H](C)OC)n3CC)CC(C)(C)COC(=O)[C@@H]2CCCN(N2)C1=O)C(C)C [Example 263] , is < 10 nM

* * *

biological target: NRAS G12C (Homo sapiens, UniProt P01111+P62937, G12C); experiment: Ras-Raf disruption / FRET / MOA assay (BRAF RBD); assay type: biochemical; details: NRAS G12C FRET data IC50, NRAS G12C
Sequence (P01111 whole entry G12C): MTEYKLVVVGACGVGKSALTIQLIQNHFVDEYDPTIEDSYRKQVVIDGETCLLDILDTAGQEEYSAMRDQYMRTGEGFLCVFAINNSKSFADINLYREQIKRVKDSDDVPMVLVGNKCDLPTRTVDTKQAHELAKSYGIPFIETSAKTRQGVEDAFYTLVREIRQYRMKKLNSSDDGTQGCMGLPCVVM
Sequence (P62937 whole entry): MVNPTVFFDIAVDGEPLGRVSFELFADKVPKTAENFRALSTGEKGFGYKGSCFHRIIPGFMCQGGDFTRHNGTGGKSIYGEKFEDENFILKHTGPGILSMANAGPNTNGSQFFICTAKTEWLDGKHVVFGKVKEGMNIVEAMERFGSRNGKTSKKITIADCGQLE
pIC50: −log10 of the molar value.
Below is a list of entries, each paired with its recorded pIC50 value.

CCn1c(-c2cccnc2[C@H](C)OC)c2c3cc(ccc31)-c1cc(cc(C(F)F)c1)C[C@H](NC(=O)[C@H](C1CCCC1)N(C)C(=O)CN(C)C(=O)[C@@H]1N[C@@H]1C1CC1)C(=O)N1CCC[C@H](N1)C(=O)OCC(C)(C)C2: 6.00 to 7.00

Turning now to a further record.
Value of pIC50 reported for the compound CCn1c(-c2cccnc2[C@H](C)OC)c2c3cc(ccc31)-c1cc(O)cc(c1)C[C@H](NC(=O)[C@H](C(C)C)N(C)C(=O)CN(C)C(=O)[C@@H]1N[C@@H]1C1CC1)C(=O)N1CCC[C@H](N1)C(=O)OCC(C)(C)C2 is 7.00 to 8.00

* * *

# Lookup of reported pIC50 keyed by entry
target: NRAS G12C (Homo sapiens, UniProt P01111+P62937, G12C); assay: Disruption of BRAF RBD interaction with Ras (FRET / MOA assay, with Cyclophilin A); format: biochemical; conditions: NRAS G12C; read-out: NRAS G12C FRET data IC50
pIC50: −log10 of the molar value.

CCn1c(-c2cnccc2COC)c2c3cc(ccc31)-c1cc(O)cc(c1)C[C@H](NC(=O)[C@H]([C@@H](C)OC)N(C)C(C)=O)C(=O)N1CCC[C@H](N1)C(=O)OCC(C)(C)C2: 6.00 to 7.00
CCn1c(-c2cccnc2[C@H](C)OC)c2c3cc(ccc31)-c1csc(n1)C[C@H](NC(=O)[C@H](F)COC1CN(C(=O)C#CC(C)(C)N(C)C)C1)C(=O)N1CCCC(N1)C(=O)OCC(C)(C)C2 (some centres unmarked): > 8.00

Input CCn1c(-c2cccnc2[C@H](C)OC)c2c3cc(ccc31)-c1csc(n1)C[C@H](NC(=O)[C@H](C(C)C)N(C)C(=O)N1CCC[C@H]1CN(C)C)C(=O)N1CCC[C@H](N1)C(=O)OCC(C)(C)C2 . Output pIC50: 6.00 to 7.00

Consider CCn1c(-c2cccnc2[C@H](C)OC)c2c3cc(ccc31)-c1cc(O)cc(c1)C[C@H](NS(=O)(=O)CC1OCCC13CNC3)C(=O)N1CCC[C@H](N1)C(=O)OCC(C)(C)C2 (mixture of isomers) . Its measured pIC50 is < 5.00

# pIC50 (compound: C=CC(=O)N1CCCC2(CCN(C(=O)N(C)[C@H](C(=O)N[C@H]3Cc4nc(cs4)-c4ccc5c(c4)c(c(-c4cccnc4[C@H](C)OC)n5CC)CC(C)(C)COC(=O)C4CCCN(N4)C3=O)C(C)C)CC2)C1 (some centres unmarked) ) is 6.00 to 7.00

* * *

target: KRAS WT (Homo sapiens, UniProt P01116+P62937); experiment: Disruption of BRAF RBD interaction with Ras (FRET / MOA assay, with Cyclophilin A); assay type: biochemical; conditions: KRAS WT; read-out: KRAS WT FRET data IC50
Sequence (P01116 1-169 isoform P01116-2 limits assumed, one chain of several): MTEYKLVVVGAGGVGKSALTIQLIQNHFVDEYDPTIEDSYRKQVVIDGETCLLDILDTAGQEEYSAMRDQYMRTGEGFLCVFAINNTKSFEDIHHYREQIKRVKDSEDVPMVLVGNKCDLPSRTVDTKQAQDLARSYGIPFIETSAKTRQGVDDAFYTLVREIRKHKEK
property label: IC50

Answered cases to consult:
CCn1c(-c2cnccc2COC)c2c3cc(ccc31)-c1cc(O)cc(c1)C[C@H](NC(=O)[C@H](C(C)C)N(C)C(=O)[C@H]1CCN(S(=O)(=O)N3CC(N)C3)C1)C(=O)N1CCC[C@H](N1)C(=O)OCC(C)(C)C2: 100 to 1000 nM
CCn1c(-c2cnccc2COC)c2c3cc(ccc31)-c1cc(O)cc(c1)C[C@H](NC(=O)[C@H](C(C)C)N(C)C(=O)[C@H]1CCN(C(=O)C(C)C)C1)C(=O)N1CCC[C@H](N1)C(=O)OCC(C)(C)C2: 1000 to 10000 nM
CCn1c(-c2cccnc2[C@H](C)OC)c2c3cc(ccc31)-c1cc(O)cc(c1)C[C@H](NC(=O)[C@H](C(C)C)N(C)C(=O)C1CC13CCNCC3)C(=O)N1CCC[C@H](N1)C(=O)OCC(C)(C)C2 (stereo partly drawn): 10 to 100 nM
C=CC(=O)N1CCO[C@H]2CCN(C(=O)N(C)[C@H](C(=O)N[C@H]3Cc4nc(cs4)-c4ccc5c(c4)c(c(-c4cccnc4[C@H](C)OC)n5CC)CC(C)(C)COC(=O)C4CCCN(N4)C3=O)C(C)C)C[C@@H]21 (stereo partly drawn): 10 to 100 nM
C=CC(=O)N1CC[C@H](C(=O)N(C)[C@H](C(=O)N[C@H]2Cc3cc(O)cc(c3)-c3ccc4c(c3)c(c(-c3cccc(CN(C)C)c3)n4CC)CC(C)(C)COC(=O)[C@@H]3CCCN(N3)C2=O)C(C)C)C1: 1000 to 10000 nM
CCn1c(-c2ccccc2CN(C)C)c2c3cc(ccc31)-c1cc(O)cc(c1)C[C@H](NC(=O)[C@H](C(C)C)N(C)C(=O)[C@H]1CCN(C(=O)/C=C/CN(C)C)C1)C(=O)N1CCC[C@H](N1)C(=O)OCC(C)(C)C2: 1000 to 10000 nM

The compound listed as CCn1c(-c2cccnc2[C@H](C)OC)c2c3cc(ccc31)-c1csc(n1)C[C@H](NC(=O)[C@H](C(C)C)N(C)C(=O)N1CC([C@H](C)NC)C1)C(=O)N1CCC[C@H](N1)C(=O)OCC(C)(C)C2 shows IC50 equal to 100 to 1000 nM

Lab note: measured IC50 of C=CC(=O)N1CC[C@H](C(=O)N(C)[C@H](C(=O)N[C@H]2Cc3cc(O)cc(c3)-c3ccc4c(c3)c(c(-c3ccncc3COC)n4CC)CC(C)(C)COC(=O)[C@@H]3CCCN(N3)C2=O)C(C)C)C1 was 100 to 1000 nM

Noted for CCn1c(-c2cccnc2[C@H](C)OC)c2c3cc(ccc31)-c1cc(O)cc(c1)C[C@H](NC(=O)[C@H](C(C)C)N(C)C(=O)C1CCC(C3CCCO3)O1)C(=O)N1CCC[C@H](N1)C(=O)OCC(C)(C)C2 (stereo partly drawn) : its IC50 reads 10 to 100 nM

* * *

molecular target: KRAS WT (Homo sapiens, UniProt P01116+P62937); experiment: Disruption of BRAF RBD interaction with Ras (FRET / MOA assay, with Cyclophilin A); format: biochemical; conditions: KRAS WT FRET data IC50, KRAS WT
pIC50: −log10 of the molar value.
property label: pIC50

CCn1c(-c2cccnc2[C@H](C)OC)c2c3cc(ccc31)-c1csc(n1)C[C@H](NC(=O)[C@H](C(C)C)N(C)C(=O)N1CCC(N(C)C)CC1)C(=O)N1CCC[C@H](N1)C(=O)OCC(C)(C)C2 (atropisomer, axis not shown): 7.00 to 8.00
CCn1c(-c2cnccc2COC)c2c3cc(ccc31)-c1cc(O)cc(c1)C[C@H](NC(=O)[C@H](C(C)C)N(C)C(=O)[C@H]1CCN(C(=O)OC)C1)C(=O)N1CCC[C@H](N1)C(=O)OCC(C)(C)C2: 6.00 to 7.00
CCn1c(-c2cccnc2[C@H](C)OC)c2c3cc(ccc31)-c1csc(n1)C[C@H](NC(=O)[C@H](C(C)C)N(C)C(=O)OC)C(=O)N1CCC[C@H](N1)C(=O)OCC(C)(C)C2: 6.00 to 7.00
CCn1c(-c2cccnc2[C@H](C)OC)c2c3cc(ccc31)-c1csc(n1)C[C@H](NC(=O)[C@H](C(C)C)N(C)C(=O)N1CCC[C@@H](N(C)C)CC1)C(=O)N1CCC[C@H](N1)C(=O)OCC(C)(C)C2: 7.00 to 8.00
CCn1c(-c2cnccc2COC)c2c3cc(ccc31)-c1cc(O)cc(c1)C[C@H](NC(=O)[C@H](C(C)C)N(C)C(=O)C1CCN(C)CC1)C(=O)N1CCC[C@H](N1)C(=O)OCC(C)(C)C2: 6.00 to 7.00
CCn1c(-c2cnccc2COC)c2c3cc(ccc31)-c1cc(O)cc(c1)C[C@H](NC(=O)[C@H](C(C)C)N(C)C(=O)[C@H]1CCN(S(=O)(=O)N3CC(O)C3)C1)C(=O)N1CCC[C@H](N1)C(=O)OCC(C)(C)C2: 6.00 to 7.00
CCn1c(-c2cccnc2[C@H](C)OC)c2c3cc(ccc31)-c1cc(O)cc(c1)C[C@H](NC(=O)[C@H](C(C)C)N(C)C(=O)C1CCNCC1)C(=O)N1CCC[C@H](N1)C(=O)OCC(C)(C)C2: 6.00 to 7.00
CCn1c(-c2cnccc2COC)c2c3cc(ccc31)-c1cc(O)cc(c1)C[C@H](NC(=O)[C@H](C(C)C)N(C)S(C)(=O)=O)C(=O)N1CCC[C@H](N1)C(=O)OCC(C)(C)C2: 5.00 to 6.00
CCn1c(-c2cnccc2COC)c2c3cc(ccc31)-c1cc(O)cc(c1)C[C@H](NC(=O)[C@H](C(C)C)N(C)C(=O)[C@@H]1NC[C@@H]3C[C@@H]31)C(=O)N1CCC[C@H](N1)C(=O)OCC(C)(C)C2: 6.00 to 7.00
CCn1c(-c2cnccc2COC)c2c3cc(ccc31)-c1cc(O)cc(c1)C[C@H](NC(=O)[C@H](C(C)C)N(C)C(=O)[C@H]1CCN(CCO)C1)C(=O)N1CCC[C@H](N1)C(=O)OCC(C)(C)C2: 7.00 to 8.00

Entry CCn1c(-c2cnccc2COC)c2c3cc(ccc31)-c1cc(O)cc(c1)C[C@H](NC(=O)[C@H](C(C)C)N(C)C(=O)[C@H](C)O)C(=O)N1CCC[C@H](N1)C(=O)OCC(C)(C)C2 , pIC50 reported as 6.00 to 7.00

Just so you know, measured pIC50 for C=CC(=O)N1CC[C@H](C(=O)N(C)[C@H](C(=O)N[C@H]2Cc3cccc(c3)-c3ccc4c(c3)c(c(-c3cccnc3[C@H](C)OC)n4CC)CC(C)(C)COC(=O)[C@@H]3CCCN(O3)C2=O)C(C)C)C1 came out at < 5.00

Record summary for CCn1c(-c2cccnc2[C@H](C)OC)c2c3cc(ccc31)-c1csc(n1)C[C@H](NC(=O)N1CCC[C@@H]1COC)C(=O)N1CCC[C@H](N1)C(=O)OCC(C)(C)C2 (atropisomer, axis not shown) : reported pIC50 = 6.00 to 7.00

Data point: CCn1c(-c2cnccc2COC)c2c3cc(ccc31)-c1cc(O)cc(c1)C[C@H](NC(=O)[C@H](C(C)C)N(C)C(=O)[C@H]1CCCO1)C(=O)N1CCC[C@H](N1)C(=O)OCC(C)(C)C2 ; pIC50 = 6.00 to 7.00

Notebook: CCn1c(-c2cccnc2[C@H](C)OC)c2c3cc(ccc31)-c1cc(O)cc(c1)C[C@H](NC(=O)[C@H](C(C)C)N(C)C(=O)[C@@H]1CC1(F)F)C(=O)N1CCC[C@H](N1)C(=O)OCC(C)(C)C2 , pIC50 read as 6.00 to 7.00

GET /value?item= CCn1c(-c2cccnc2[C@H](C)OC)c2c3cc(ccc31)-c1csc(n1)C[C@H](NC(=O)N1CCCC1)C(=O)N1CCC[C@H](N1)C(=O)OCC(C)(C)C2 &field=pIC50 returns 6.00 to 7.00

The measured pIC50 associated with CCn1c(-c2cccnc2[C@H](C)OC)c2c3cc(ccc31)-c1cccc(c1)C[C@H](NC(=O)[C@H](C(C)C)N(C)C(=O)[C@H]1CCN(C(=O)CNC)C1)C(=O)N1CCC[C@H](N1)C(=O)OCC(C)(C)C2 reads 5.00 to 6.00

Value of pIC50 reported for the compound CCn1c(-c2cnccc2COC)c2c3cc(ccc31)-c1cc(O)cc(c1)C[C@H](NC(=O)[C@H](C(C)C)N(C)C(=O)CO)C(=O)N1CCC[C@H](N1)C(=O)OCC(C)(C)C2 is 6.00 to 7.00
